# EXPERIMENTAL_SYSTEM: HLA-A*0201 (human)
# ASSAY_TEXT: competition for purified HLA vs 125I-labelled probe peptide, gel filtration
# CONDITION_LABEL: remark: other sources report otherwise
METRIC_NAME: IC50 (nM)

1. VLLGVVFGV [Her2/neu.665.L2V9]
2. VMAGVGSPYV [Her2/neu.773]
Task for the reader: decide whether 1 or 2 has the larger IC50. Use the label to indicate which entry you chose.
2
(2: 200 nM, 1: 2.4 nM)
